// ΔTm (º) (TSA) lookup, one value per entry
- System: dCK-C3S-S74E
- Sequence (P27707 whole entry S74E, form open): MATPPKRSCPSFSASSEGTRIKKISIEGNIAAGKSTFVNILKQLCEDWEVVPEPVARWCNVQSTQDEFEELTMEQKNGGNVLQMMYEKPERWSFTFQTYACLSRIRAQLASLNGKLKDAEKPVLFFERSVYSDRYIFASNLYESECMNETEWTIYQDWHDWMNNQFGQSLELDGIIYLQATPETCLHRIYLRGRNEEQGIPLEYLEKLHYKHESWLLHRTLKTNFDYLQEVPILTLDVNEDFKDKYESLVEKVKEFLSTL
- ASSAY_NAME: Thermal shift assay (TSA)
- PROTOCOL_CONDITIONS: Figure 2a, mean

>>> obs_value("CCCN(c1nc(-c2nc(N)cc(N)n2)cs1)c1cc(-c2ccc(C(=O)N3CCN(C)CC3)nc2)ccc1C")
"16.58 º"
>>> obs_value("CCCN(c1nc(-c2nc(N)cc(N)n2)cs1)c1cc(-c2c(F)cc(S(=O)(=O)N3CCN(C)CC3)cc2F)ccc1C")
"21.06 º"
>>> obs_value("Cc1ccc(-c2ccc(S(=O)(=O)N3CCN(C)CC3)cc2)cc1N(C)c1nc(-c2nc(N)cc(N)n2)cs1")
"16.75 º"

Any idea what its ΔTm (º) (TSA) is? The compound is "Cc1ccc(-c2ccc(S(=O)(=O)N3CCN(C)CC3)cc2)cc1N(c1nc(-c2nc(N)cc(N)n2)cs1)C(C)C" 17.68 º
